Record form. Attribute: cell proliferation. Fill in for each entry.
# System: U2932 TK216-resistant clone 2
# protocol.details: cell proliferation relative to vehicle (% of vehicle); higher = less growth inhibition
# test.parameters: 50 nM; 72 h
Structures can show the parent of a compound that is named as a salt.
Response field accepts a number only; no unit should be typed.

Exercise: Request: cell proliferation, test system U2932 TK216-resistant clone 2, entry CCCCc1nc2cc(/C=C/C(=O)NO)ccc2n1CCN(CC)CC [Pracinostat (SB939)]
Solution: 107

Exercise: API: value(readout=cell proliferation, system=U2932 TK216-resistant clone 2) for record Cn1cncc1[C@@](N)(c1ccc(Cl)cc1)c1ccc2c(c1)c(-c1cccc(Cl)c1)cc(=O)n2C
Solution: 91.9

Exercise: Lab note: need cell proliferation with U2932 TK216-resistant clone 2 for entry COC1=CC(c2cc3ccccc3[nH]2)=N/C1=C\c1[nH]c(C)cc1C [Obatoclax Mesylate (GX15-070)] , please look it up.
Solution: 94.8

Exercise: Kindly state the measured cell proliferation obtained for CN1CCC(Nc2nc(Nc3ccc(Oc4ccccc4)cc3)c3c(=O)[nH]cc(Br)c3n2)CC1 with U2932 TK216-resistant clone 2.
Solution: 100

Exercise: # get_value(readout= cell proliferation, system= U2932 TK216-resistant clone 2) for COc1cc(Nc2nc3ccccc3nc2NS(=O)(=O)c2ccc(NC(=O)c3ccc(C)c(OC)c3)cc2)cc(OC)c1
Solution: 98.5

Exercise: Return cell proliferation measured with U2932 TK216-resistant clone 2 given this molecule: CC[C@@]1(O)C(=O)OCc2c1cc1n(c2=O)Cc2cc3cc(O)ccc3nc2-1 [(S)-10-Hydroxycamptothecin]
Solution: 4.11

Exercise: Given the entry Nc1ccc(C(=O)Nc2cccc(-c3nc(N4CCOCC4)c4oc5ncccc5c4n3)c2)cn1 , what cell proliferation was observed with U2932 TK216-resistant clone 2?
Solution: 98.7

Exercise: API: value(readout= cell proliferation, system= U2932 TK216-resistant clone 2, query= COc1ccc(S(=O)(=O)N(C(C)=O)c2ccccc2/C=C/c2cc[n+]([O-])cc2)cc1 )
Solution: 103

Exercise: Write down the reported cell proliferation of CC(C)N(C[C@H]1O[C@@H](n2cnc3c(N)ncnc32)[C@H](O)[C@@H]1O)[C@H]1C[C@@H](CCc2nc3cc(C(C)(C)C)ccc3[nH]2)C1 , test system: U2932 TK216-resistant clone 2.
Solution: 98.8

Exercise: Please provide the recorded cell proliferation for Cc1cc(Nc2cc(N3CCN(C)CC3)nc(Sc3ccc(NC(=O)C4CC4)cc3)n2)n[nH]1 , tested on U2932 TK216-resistant clone 2.
Solution: 91.1

Exercise: Query cell proliferation on U2932 TK216-resistant clone 2 for CCn1c(-c2nonc2N)nc2c(C#CC(C)(C)O)ncc(OC[C@H]3CCCNC3)c21
Solution: 91.1

Exercise: So what cell proliferation did C[C@@H]1CN(CC(=O)Nc2ccc3c(c2)Cc2cccc(-c4cc(=O)cc(N5CCOCC5)o4)c2S3)C[C@H](C)O1 get with U2932 TK216-resistant clone 2?
Solution: 102

Exercise: API: value(readout=cell proliferation, system=U2932 TK216-resistant clone 2) for record CC[C@H](CO)Nc1nc(NCc2ccccc2)c2ncn(C(C)C)c2n1 [Roscovitine (Seliciclib,CYC202)]
Solution: 105

Exercise: Record Clc1ccc(Nc2nnc(Cc3ccncc3)c3ccccc23)cc1 [Vatalanib (PTK787) 2HCl] : what is its cell proliferation with U2932 TK216-resistant clone 2?
Solution: 109

Exercise: For the record COc1cc2ncnc(Oc3ccc(CC(=O)Nc4cnn(C(C)C)c4)cc3)c2cc1OC , what value of cell proliferation is listed for U2932 TK216-resistant clone 2?
Solution: 100

Exercise: I'm curious: which cell proliferation was measured for CN[C@@H](C)C(=O)N[C@H](C(=O)N1CCC[C@H]1C(=O)Nc1snnc1-c1ccccc1)C1CCCCC1 tested on U2932 TK216-resistant clone 2?
Solution: 102
